TGT: PI 4-kinase beta (Homo sapiens, UniProt Q9UBF8)
Sequence (Q9UBF8 whole entry): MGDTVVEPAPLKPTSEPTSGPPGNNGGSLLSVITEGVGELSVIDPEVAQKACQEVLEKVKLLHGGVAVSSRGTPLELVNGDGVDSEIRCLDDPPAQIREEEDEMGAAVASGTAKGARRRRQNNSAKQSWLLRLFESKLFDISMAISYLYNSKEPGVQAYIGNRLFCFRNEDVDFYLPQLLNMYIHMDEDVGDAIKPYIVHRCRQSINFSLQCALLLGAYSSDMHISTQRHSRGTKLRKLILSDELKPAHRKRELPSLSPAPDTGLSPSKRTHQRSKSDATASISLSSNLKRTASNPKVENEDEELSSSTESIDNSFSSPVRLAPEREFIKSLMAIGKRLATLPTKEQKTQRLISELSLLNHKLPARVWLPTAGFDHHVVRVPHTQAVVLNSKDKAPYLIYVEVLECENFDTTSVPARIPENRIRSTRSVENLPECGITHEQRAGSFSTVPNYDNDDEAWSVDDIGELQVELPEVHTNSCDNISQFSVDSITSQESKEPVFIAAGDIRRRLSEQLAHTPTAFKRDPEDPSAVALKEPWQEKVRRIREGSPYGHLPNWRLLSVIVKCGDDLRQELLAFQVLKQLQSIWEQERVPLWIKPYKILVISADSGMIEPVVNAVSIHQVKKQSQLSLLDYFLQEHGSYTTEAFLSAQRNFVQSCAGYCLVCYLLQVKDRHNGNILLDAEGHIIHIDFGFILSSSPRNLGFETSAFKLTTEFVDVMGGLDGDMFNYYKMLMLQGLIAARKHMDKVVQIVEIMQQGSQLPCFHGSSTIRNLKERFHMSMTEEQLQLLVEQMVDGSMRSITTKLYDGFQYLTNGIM
ASSAY TEXT: Kinase Glo Luminescent Kinase Assay (Kglo), assay D
Format: biochemical
RECORDED CONDITIONS: read-out: Assay D PI4Kβ IC50
Each record here notes measured pIC50.
Quick note: pIC50 values are minus log10 of concentrations in mol/L.

Past entries and their recorded results:
MOLECULE: Cc1ccc(S(=O)(=O)NCC(C)(C)O)cc1-c1cnc(N)c(-n2cncn2)n1
pIC50: 5.15

MOLECULE: Cc1cc(-c2nc(-c3cc(S(=O)(=O)NC4CCOCC4)ccc3C)cnc2N)ccn1
pIC50: 5.21

MOLECULE: Cc1ccc(S(=O)(=O)NCCC(C)(C)O)cc1-c1cnc(N)c(-c2ccc(N3CCCC3)nc2)n1
pIC50: 5.81

MOLECULE: Cc1ncc(-c2nc(-c3cc(S(=O)(=O)NCC4(O)CCOCC4)ccc3C)cnc2N)s1
pIC50: 5.72

INPUT: What value of measured pIC50 is listed for Cc1ncc(-c2nc(-c3cc(S(=O)(=O)NCC4(C)COC4)ccc3C)cnc2N)s1 ?
OUTPUT: 5.60

INPUT: Looking for the measured pIC50 of Cc1ccc(S(=O)(=O)NCCC(C)(C)O)cc1-c1cnc(N)c(-c2csc(CN3CCOCC3)c2)n1 , can you help?
OUTPUT: 5.10

INPUT: For Cc1ccc(S(=O)(=O)NC[C@@H]2CCC(C)(C)O2)cc1-c1cnc(N)c(-n2cncn2)n1 [Example 127.40] , what is its reported pIC50?
OUTPUT: 5.12

Reference source: patent US10004732B2
